Provide the reported normalized growth of each item.
- Procedure details: chemical genetic growth profiling, strain panel (AID 1159580);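 note: tested at 20 µM; growth read once vehicle control cultures reached saturation at 30 °C; 1 = growth at the plate median or of vehicle wells; lower values mean less growth of the strain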
- Assay conditions: S. cerevisiae deletion strains, growth OD, locus YMR223W, strain ubp8, hits give low values
Out of some 5,500 compounds screened, about 2,000 (36%) were called active. Roughly 18% stayed inconclusive and do not appear here. The list shows a part of the results.
Numbers only.

CN[C@@H](C)[C@@H](O)c1ccccc1: 0.985
CCOC(=O)c1c(C)cc(O)c(C)c1O: 0.952
CC(N)CCCC(C)(C)O (centres undefined): 1.02
CNC(C)[C@H](O)c1ccccc1 (some centres undefined): 0.998
COc1cc(O)c(C(=O)/C=C/c2ccccc2)c(OC)c1: 0.87

For every listed record, write down its normalized growth.
1. CCCCCCCCNC(C)C(O)c1ccc(SC(C)C)cc1 (centres undefined)
2. Cc1cc(O)c(C=O)c(O)c1C(=O)O
3. Cc1cc(O)c(C)c(O)c1C(=O)O
4. CCOC(=O)c1c(C)cc(O)c(C=O)c1O

[0.0556, 1.02, 0.988, 0.2]
